Tested on: tetrabenazine ptosis on mice
assay_name: Antagonism of tetrabenazine ptosis on mice, p.o.
Assay type: in vivo
For each entry below, report its Ther. index, tetrabenazine ptosis value.

Task: Report Ther. index, tetrabenazine ptosis under test system tetrabenazine ptosis on mice for COC1(c2ccc(Cl)cc2)[N-]C=N[n+]2ccc3ccccc3c21 (centres unmarked) .
Result: 1680

Task: Send back tetrabenazine ptosis on mice Ther. index, tetrabenazine ptosis of Clc1ccc(-c2ncn[n+]3ccc4ccccc4c23)cc1 [Reference compound D, reference compound] only.
Result: 188

Task: Given OC1(c2ccc(Cl)cc2)[N-]C=N[n+]2ccc3ccccc3c21 (centres unmarked) , report its Ther. index, tetrabenazine ptosis on tetrabenazine ptosis on mice.
Result: 3667

Task: Write down measured Ther. index, tetrabenazine ptosis (tetrabenazine ptosis on mice) for this molecule. CN(C)CCC=C1c2ccccc2CCc2ccccc21 [Amitriptyline, reference compound]
Result: 19

Task: Quote Ther. index, tetrabenazine ptosis with test system tetrabenazine ptosis on mice for O=c1nc(-c2ccc(Cl)cc2)c2c3ccccc3cc[n+]2[n-]1
Result: 87

---

Test system: reserpine ptosis on mice
assay_name: Antagonism of reserpine ptosis on mice, p.o.
Type: in vivo
quantity_measured: Ther. index, reserpine ptosis

Task: Identify measured Ther. index, reserpine ptosis corresponding to CN(C)CCC=C1c2ccccc2CCc2ccccc21 [Amitriptyline, reference compound]
Result: 3.45

Task: Please look at this molecule and report its Ther. index, reserpine ptosis: OC1(c2ccc(Cl)cc2)[N-]C=N[n+]2ccc3ccccc3c21 (stereo not shown) [Compound A]
Result: 19.6

Task: Consider the molecule COC1(c2ccc(Cl)cc2)[N-]C=N[n+]2ccc3ccccc3c21 (stereo not shown) [Compound B] and give its recorded Ther. index, reserpine ptosis.
Result: 280.0

---

assay_name: Acute toxicity on mice, oral (LD50, Litchfield-Wilcoxon, 7 days observation)
test_parameters: mouse, in vivo, mice, p.o., 7 days observation
quantity_measured: LD50 at 168 h (mg/kg)
Respond with the bare value in mg/kg.

Task: Give a short answer stating reported LD50 at 168 h for O=c1nc(-c2ccc(Cl)cc2)c2c3ccccc3cc[n+]2[n-]1 .
Result: 2000

---

Assign ED50 to each entry below.
Tested on: reserpine ptosis on mice
assay_name: Antagonism of reserpine ptosis on mice, p.o.
Format: in vivo
test_parameters: Mus musculus, po, 1 h, 60 minutes after 6 mg./kg. reserpine s.c.
Express it in mg/kg; write the number only.

Task: Give ED50 for COC1(c2ccc(Cl)cc2)[N-]C=N[n+]2ccc3ccccc3c21 (stereo not shown)
Result: 1.5

Task: Determine its reported ED50: CN(C)CCC=C1c2ccccc2CCc2ccccc21 [Amitriptyline, reference compound]
Result: 65

Task: Find the measured ED50 of OC1(c2ccc(Cl)cc2)[N-]C=N[n+]2ccc3ccccc3c21 (stereo not shown) and report it.
Result: 28

Origin of values: patent US4753938A
